Data provenance is paper PMC6100240.

The following compounds are shown together with reported melting point values.

Example results:
• Clc1ccc(N2CCN(c3nc(Nc4cc(C5CC5)[nH]n4)c4cc(Cl)ccc4n3)CC2)cc1 = 250 to 251.8 °C
• COc1cccc(N2CCN(c3nc(Nc4cc(C5CC5)[nH]n4)c4cc(Cl)ccc4n3)CC2)c1 = 199.9 to 201.8 °C

**Q:** Specify measured melting point for "Clc1ccc2nc(N3CCC(N4CCCCC4)CC3)nc(Nc3cc(C4CC4)[nH]n3)c2c1" .
**A:** 208.3 to 209.6 °C

**Q:** Return melting point (reported value) for this compound: "FC(F)(F)c1ccc(N2CCN(c3nc(Nc4cc(C5CC5)[nH]n4)c4cc(Cl)ccc4n3)CC2)cc1"
**A:** 256.4 to 257.8 °C

**Q:** Identify melting point associated with the compound "FC(F)(F)c1ccc(N2CCN(c3nc(Nc4cc(C5CC5)[nH]n4)c4cc(Cl)ccc4n3)CC2)nc1"
**A:** 247.6 to 259.6 °C

**Q:** Kindly indicate its recorded melting point. Item: "COc1ccc(N2CCN(c3nc(Nc4cc(C5CC5)[nH]n4)c4cc(Cl)ccc4n3)CC2)cc1"
**A:** 237.1 to 239.5 °C

**Q:** In one line, give reported melting point of the entry "Clc1ccc2nc(N3CCN(c4ccc(Br)cc4)CC3)nc(Nc3cc(C4CC4)[nH]n3)c2c1" .
**A:** 248.7 to 251.9 °C
